assay_text: Parallel artificial membrane permeability assay (PAMPA by pION)
condition: pH 7.4
measured_endpoint: Papp (×10⁻⁶ cm/s)

- O=C(C=C1NCC2CCCCN2C1=O)c1cccc(F)c1 (stereo not drawn): 54.5
- O=C(C=C1NCC2CCCCN2C1=O)c1ccccc1 (stereo not drawn): 66.4
- O=C(C=C1NCC2c3ccccc3CCN2C1=O)C1CCC1 (stereo not drawn): 44

[A] O=C(C=C1NCC2c3ccccc3CCN2C1=O)c1cccc(NC(=O)N2CCOCC2)c1 (stereo not drawn)
[B] O=C(/C=C1\NCC2c3ccccc3CCN2C1=O)c1cccc(F)c1 (stereo not drawn)
[C] O=C(C=C1NCC2CCCCN2C1=O)c1ccco1 (stereo not drawn)
In this exercise, place the 3 compounds in ascending sequence of their recorded Papp. Provide your answer as the labels ordered per the instruction.
B, C, A
(B: 11.7 ×10⁻⁶ cm/s, C: 32.7 ×10⁻⁶ cm/s, A: 53 ×10⁻⁶ cm/s)

====

assay_text: log D pH 7.4 by potentiometric titration (Gemini Profiler, pION)
Assay type: physicochemical
measured_endpoint: logD

[1] O=C(C=C1NCC2CCCCN2C1=O)c1ccco1 (stereo not drawn) [Compound 3g]
[2] O=C(C=C1NCC2c3ccccc3CCN2C1=O)C1CCC1 (stereo not drawn) [Compound 2c]
[3] O=C(C=C1NCC2c3ccccc3CCN2C1=O)c1cccc(NC(=O)N2CCOCC2)c1 (stereo not drawn) [Compound 1e]
[4] O=C(/C=C1\NCC2c3ccccc3CCN2C1=O)c1cccc(F)c1 (stereo not drawn) [Compound 2]
List by increasing logD. Quick reminder: the answer is the labels in the order asked.
1, 3, 2, 4

====

Test system: antioxidant response element (ARE)
assay_text: ARE luciferase reporter assay in HepG2-ARE-C8 cells
Assay type: cell-based
condition: 0.1 μM, HepG2-ARE-C8, 12 h of treatment, mean ± SD n = 3; read-out: ARE Inductivity in Luciferase Reporter Assay (induction fold)
Structures can show the parent of a compound that is named as a salt.
measured_endpoint: fold induction at 0.1 µM
Lab note: jot down the number only; don't add units.

Use these answered entries as a reference point.
- O=C(C=C1NCC2c3ccccc3CCN2C1=O)C1CCC1 (centres unmarked): 2.96
- CCCC(=O)C=C1NCC2c3ccccc3CCN2C1=O (centres unmarked): 2.38
- COc1cccc(C(=O)C=C2NCC3CCCCN3C2=O)c1 (centres unmarked): 1.4
- O=C(C=C1NCC2CCCCN2C1=O)c1cccs1 (centres unmarked): 2.06
- COC(=O)/C=C/C(=O)OC [DMF, Dimethyl fumarate, reference compound]: 1.04

Return fold induction at 0.1 µM for the following compound: O=C(C=C1NCC2CCCCN2C1=O)c1ccccc1 (centres unmarked)
1.2

Specify measured fold induction at 0.1 µM for O=C(C=C1NCC2CCCCN2C1=O)c1cccc([N+](=O)[O-])c1 (centres unmarked) .
1.96

Return reported fold induction at 0.1 µM. Input compound: Nc1cccc(C(=O)C=C2NCC3c4ccccc4CCN3C2=O)c1 (centres unmarked)
0.56

====

assay_text: MTT cell viability (cytotoxicity) assay
Format: cell-based
condition: human, HCT116 cells
Protocol: All the derivatives were evaluated for their ability to induce ARE in HepG2-ARE-C8 cell (HepG2 cells stably transfected with a luciferase reporter) by ARE luciferase reporter assay, and they were compared to the lead compound 2. […] The results of cytotoxic activity in vitro were expressed as the IC50 [18]. […] Cell viabilities were determined by using 3-[4,5-dimethylthiazol-2-yl]-2,5-diphenyltetrazolium bromide (MTT) assay. […]
measured_endpoint: IC50 at 24 h (µM)
Numeric answer only, unit µM assumed.

- O=C(C=C1NCC2CCCCN2C1=O)c1cccc([N+](=O)[O-])c1 (centres unmarked) [Compound 3d]: 181
- O=C(C=C1NCC2c3ccccc3CCN2C1=O)c1ccc(N2CCOCC2)cc1 (centres unmarked) [Compound 2i]: 237
- O=C(C=C1NCC2CCCCN2C1=O)c1cccc(Cl)c1 (centres unmarked) [Compound 3c]: 174
- O=C(C=C1NCC2c3ccccc3CCN2C1=O)C1CCC1 (centres unmarked) [Compound 2c]: 190
- O=C(C=C1NCC2c3ccccc3CCN2C1=O)C1CCCC1 (centres unmarked) [Compound 2d]: 161
- O=C(C=C1NCC2CCCCN2C1=O)c1ccc(-c2ccccc2)cc1 (centres unmarked) [Compound 3f]: 184
- O=C(C=C1NCC2c3ccccc3CCN2C1=O)c1cnc2ccccc2c1 (centres unmarked) [Compound 2h]: 92.4
- O=C(C=C1NCC2CCCCN2C1=O)c1cccc2ccccc12 (centres unmarked) [Compound 3j]: 264

Now look at this one.
Given O=C(C=C1NCC2c3ccccc3CCN2C1=O)c1cccc(NC(=O)N2CCOCC2)c1 (centres unmarked) [Compound 1e] , respond with its IC50 at 24 h.
183

====

assay_text: pKa by potentiometric titration (Gemini Profiler, pION)
Assay type: physicochemical
measured_endpoint: pKa

* O=C(C=C1NCC2CCCCN2C1=O)c1cccc(F)c1 (stereo not drawn) | 3.1
* O=C(C=C1NCC2c3ccccc3CCN2C1=O)C1CCC1 (stereo not drawn) | 3.02
* O=C(C=C1NCC2CCCCN2C1=O)c1ccccc1 (stereo not drawn) | 3.42
* O=C(C=C1NCC2c3ccccc3CCN2C1=O)c1cccc(NC(=O)N2CCOCC2)c1 (stereo not drawn) | 2.9
* O=C(C=C1NCC2CCCCN2C1=O)c1ccco1 (stereo not drawn) | 2.08
* O=C(/C=C1\NCC2c3ccccc3CCN2C1=O)c1cccc(F)c1 (stereo not drawn) | 2.78

====

Listed below: melting point values for each entry.

- O=C(C=C1NCC2CCCCN2C1=O)c1ccccc1 (stereo not shown) [Compound 3a]: 164 to 166 °C
- O=C(C=C1NCC2CCCCN2C1=O)c1cccc2ccccc12 (stereo not shown) [Compound 3j]: 151 to 153 °C
- O=C(C=C1NCC2c3ccccc3CCN2C1=O)c1cccc(NC(=O)N2CCOCC2)c1 (stereo not shown) [Compound 1e]: 228 to 230 °C
- O=C(C=C1NCC2CCCCN2C1=O)c1cccs1 (stereo not shown) [Compound 3h]: 182 to 184 °C
- O=C(C=C1NCC2c3ccccc3CCN2C1=O)C1CCC1 (stereo not shown) [Compound 2c]: 172 to 174 °C
- O=C(C=C1NCC2c3ccccc3CCN2C1=O)C1CCCC1 (stereo not shown) [Compound 2d]: 185 to 187 °C
- O=C(C=C1NCC2c3ccccc3CCN2C1=O)c1cnc2ccccc2c1 (stereo not shown) [Compound 2h]: 245 to 247 °C
- CCCC(=O)C=C1NCC2c3ccccc3CCN2C1=O (stereo not shown) [Compound 2a]: 158 to 160 °C
- O=C(C=C1NCC2CCCCN2C1=O)c1nccs1 (stereo not shown) [Compound 3i]: 151 to 153 °C

Answer with the recorded melting point for the compound listed here: O=C(C=C1NCC2CCCCN2C1=O)c1cccc(F)c1 (stereo not shown) [Compound 3b]
156 to 158 °C

====

measured_endpoint: melting point

Some solved cases for reference:
• O=C(C=C1NCC2c3ccccc3CCN2C1=O)C1=CCCCC1 (centres unmarked) = 180 to 182 °C
• O=C(C=C1NCC2c3ccccc3CCN2C1=O)C1CCCCC1 (centres unmarked) = 203 to 205 °C

Supply melting point value. Item: O=C(C=C1NCC2c3ccccc3CCN2C1=O)c1c[nH]c2ccccc12 (centres unmarked)
270 to 272 °C

# return recorded melting point for input COc1cccc(C(=O)C=C2NCC3CCCCN3C2=O)c1 (centres unmarked)
133 to 135 °C

Note melting point for the molecule shown: O=C(C=C1NCC2CCCCN2C1=O)c1cccc([N+](=O)[O-])c1 (centres unmarked)
174 to 176 °C

====

Measured fold induction at 5 µM, listed per entry.
Test system: antioxidant response element (ARE)
assay_text: ARE luciferase reporter assay in HepG2-ARE-C8 cells
Format: cell-based
condition: 5 μM, HepG2-ARE-C8, 12 h of treatment, mean ± SD n = 3; read-out: ARE Inductivity in Luciferase Reporter Assay (induction fold)
Where a name gives a salt, the structure may show the parent alone.
// print number alone

# annotated cases, reported fold induction at 5 µM shown
• O=C(C=C1NCC2c3ccccc3CCN2C1=O)C1=CCCCC1 (stereo not shown) [Compound 2f] = 5.46
• CC(=O)Nc1cccc(C(=O)C=C2NCC3c4ccccc4CCN3C2=O)c1 (stereo not shown) [Compound 1c] = 2.3
• O=C(C=C1NCC2c3ccccc3CCN2C1=O)c1c[nH]c2ccccc12 (stereo not shown) [Compound 2g] = 4.68

In one line, give reported fold induction at 5 µM of the entry O=C(C=C1NCC2c3ccccc3CCN2C1=O)C1CCCCC1 (stereo not shown) [Compound 2e] .
3.03

Output measured fold induction at 5 µM for this item: O=C(/C=C1\NCC2c3ccccc3CCN2C1=O)c1cccc(F)c1 (stereo not shown) [Compound 2]
16.2

Complete the entry with fold induction at 5 µM for COC(=O)/C=C/C(=O)OC [DMF, Dimethyl fumarate, reference compound]
1.4

Please look at this molecule and report its fold induction at 5 µM: O=C(C=C1NCC2CCCCN2C1=O)c1ccc(-c2ccccc2)cc1 (stereo not shown) [Compound 3f]
3.6
